TARGET_ENTITY: human CYP11B1 (Homo sapiens)
Sequence (P15538 25-503): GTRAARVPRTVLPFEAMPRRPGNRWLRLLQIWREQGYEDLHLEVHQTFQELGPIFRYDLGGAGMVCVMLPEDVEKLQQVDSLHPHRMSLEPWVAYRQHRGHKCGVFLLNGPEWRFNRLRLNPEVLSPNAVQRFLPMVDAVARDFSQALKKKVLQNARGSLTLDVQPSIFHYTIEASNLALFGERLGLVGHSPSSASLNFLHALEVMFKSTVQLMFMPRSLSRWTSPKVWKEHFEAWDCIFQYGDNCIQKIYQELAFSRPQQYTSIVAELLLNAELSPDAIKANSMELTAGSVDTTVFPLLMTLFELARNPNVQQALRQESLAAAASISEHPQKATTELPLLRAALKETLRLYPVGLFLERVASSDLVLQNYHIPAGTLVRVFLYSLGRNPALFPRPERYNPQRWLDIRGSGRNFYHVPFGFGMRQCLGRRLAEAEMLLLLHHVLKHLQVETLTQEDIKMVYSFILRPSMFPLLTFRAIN
EXPERIMENT_DESCRIPTION: G-402 cellular enzyme assay, human CYP11B1 (cortisol release, HTRF)
EXPERIMENTAL_SETUP: G-402 cells expressing human CYP11B1; 1 μM Deoxycortisol
pEC50: −log10 of the molar value. Structures can show the parent of a compound that is named as a salt.
OBSERVABLE: pEC50

CN1C(=O)CCc2cc(-c3cncc(NCCO)n3)c(F)cc21 [Example 26]: 6.24

A: CN1C(=O)CCc2cc(-c3cncc(CN)c3)ccc21 [Example 36]
B: CC(C)[C@H](CO)Nc1cncc(-c2ccc3c(c2)CCC(=O)N3C)c1 [Example 30]
C: CCS(=O)(=O)NCc1cncc(-c2cc3c(cc2F)N(C)C(=O)CC3)c1 [Example 16]
D: CCS(=O)(=O)N1CC[C@@H](Oc2cncc(-c3cc4c(cc3F)N(C)C(=O)CC4)c2)C1 [Example 168]
E: CCS(=O)(=O)N(C)CCOc1cncc(-c2ccc3c(c2)CCC(=O)N3C)c1 [Example 195]
Enquiry: Parameters: sort_field (pEC50), sort_dir (desc). Output the labels ranked as instructed.
Return: E, D, C, A, B
(E: 7.25, D: 6.56, C: 6.07, A: 5.59, B: 4.99)

a: Cc1c(-c2ccc3c(c2)CCC(=O)N3C)cncc1C(C)N (single isomer, unassigned) [Example 240, hydrochloride]
b: Cn1c(=O)ccc2cc(-c3cncc(C4(N)CC4)c3)ccc21 [Example 262]
Enquiry: Lower value for measured pEC50? Options: a , b Kindly state the label of the option you pick.
Return: a
(a: 4.82, b: 5.74)

a: Cc1nocc1C(=O)NCc1cncc(-c2ccc3c(c2)CCC(=O)N3C)c1 [Example 92]
b: CC(N)c1cncc(-c2ccc3c(c2)CCC(=O)N3C)c1 (single isomer, unassigned) [Example 64, hydrochloride]
c: CN1C(=O)CCc2cc(-c3cncc(N4CCC[C@H]4CO)c3)ccc21 [Example 5]
d: CN1C(=O)CCc2cc(-c3cncc(CN4C(=O)CC[C@H]4CO)c3)ccc21 [Example 8]
Enquiry: # rank by pEC50, ascending (min first) Output the labels ranked as instructed.
Return: b, d, c, a
(b: 4.91, d: 5.63, c: 5.97, a: 6.20)

I: Cc1c(-c2ccc3c(c2)CCC(=O)N3C)cncc1C(C)N[S@+]([O-])C(C)(C)C (single isomer, unassigned) [Example 239]
II: CCC(=O)NC(C)c1cncc(-c2cc3c(cc2F)N(C)C(=O)CC3)c1C (single isomer, unassigned) [Example 264]
Enquiry: From the recorded data, which exceeds the other in pEC50: I or II ? Kindly state the label of the option you pick.
Return: I

I: CN1C(=O)CCc2cc(-c3cncc(C4(NC(=O)c5ncccc5Cl)CC4)c3)c(F)cc21 [Example 142]
II: CCC(=O)N1CC[C@@H](Oc2cncc(-c3ccc4c(c3)CCC(=O)N4C)c2)C1 [Example 121]
III: CC(N)c1cncc(-c2ccc3c(c2)CCC(=O)N3C)c1 (single isomer, unassigned) [Example 65, hydrochloride]
IV: Cc1nc(C(=O)NCc2cncc(-c3ccc4c(c3)CCC(=O)N4C)c2)c(C)o1 [Example 111]
V: CN1C(=O)CCc2cc(-c3cncc(CNC(=O)C4CC4)c3)ccc21 [Example 41]
Enquiry: Parameters: sort_field (pEC50), sort_dir (desc). Output the labels ranked as instructed.
Return: IV, I, II, V, III
(IV: 7.09, I: 6.42, II: 5.86, V: 5.25, III: 4.88)

I: CCS(=O)(=O)NCc1cncc(-c2cc3c(cc2F)N(C)C(=O)CC3)c1C [Example 192]
II: Cc1cc(Cl)cnc1C(=O)NCc1cncc(-c2ccc3c(c2)CCC(=O)N3C)c1 [Example 120]
Enquiry: From the recorded data, which exceeds the other in pEC50: I or II ? Kindly state the label of the option you pick.
Return: II
(II: 8.10, I: 5.70)

A: CN1C(=O)CCc2cc(-c3cncc(O[C@@H]4CCN(C(=O)OC(C)(C)C)C4)c3)ccc21 [Example 53]
B: CN1C(=O)CCc2cc(-c3cncc(CN4CCS(=O)(=O)CC4)c3)ccc21 [Example 20]
C: Cc1c(CNC(=O)c2ncccc2Cl)cncc1-c1cc2c(cc1F)N(C)C(=O)CC2 [Example 227]
D: CN1C(=O)CCc2cc(-c3cncc(CNC(=O)c4ncccc4Cl)c3Cl)ccc21 [Example 220]
E: Cc1noc(C)c1C(=O)NC(C)c1cncc(-c2ccc3c(c2)CCC(=O)N3C)c1C (single isomer, unassigned) [Example 242]
Enquiry: # rank by pEC50, ascending (min first) Output the labels ranked as instructed.
Return: E, A, C, D, B
(E: 5.43, A: 6.34, C: 6.80, D: 7.40, B: 7.70)

I: Cc1c(CN[S@+]([O-])C(C)(C)C)cncc1-c1cc2c(cc1F)N(C)C(=O)CC2 [Example 225]
II: CCS(=O)(=O)NCc1cncc(-c2cc3c4c(c2)CCC(=O)N4CCC3)c1 [Example 235]
III: CCS(=O)(=O)N(C)CCOc1cncc(-c2cc3c(cc2F)N(C)C(=O)CC3)c1 [Example 248]
IV: CN1C(=O)CCc2cc(-c3cncc(O[C@@H]4CCNC4)c3)c(F)cc21 [Example 67, hydrochloride]
Enquiry: Parameters: sort_field (pEC50), sort_dir (desc). Output the labels ranked as instructed.
Return: III, I, II, IV

Value source: patent US9260408B2
